System: incorporation of [1-14C] acetate into membrane fatty acids in S. aureus
Test: [14C] acetate incorporation into membrane fatty acids in S. aureus
Format: cell-based, Staphylococcus aureus
Details: Staphylococcus aureus, read-out: IC50 [14C] acetate incorporation
measured-endpoint: pIC50
Please treat pIC50 as minus the base-10 logarithm of the molar concentration.

As a guide, the following entries are already answered.
{"molecule": "C=CC(C)(C)C12C=C(OC)C(=O)N3/C(=C/c4cnc[nH]4)C(=O)NC31N(OC)c1ccccc12 (stereo not shown) [Compound 3, oxaline]", "pIC50": 4.47}
{"molecule": "C=CC(C)(C)C12C=C(O)C(=O)N3/C(=C/c4cnc[nH]4)C(=O)NC31N(OC)c1ccccc12 (stereo not shown) [Compound 1, meleagrin]", "pIC50": 4.39}
{"molecule": "C=CC(C)(C)C12C=C(OC)C(=O)N3/C(=C/c4cnc[nH]4)C(=O)N(C)C31N(OC)c1ccccc12 (stereo not shown) [Compound 5, O,N^14-dimethylmeleagrin]", "pIC50": 4.79}

Task: For the molecule shown here, C=CC(C)(C)C12C=C(OC)C(=O)N3/C(=C/c4cnc[nH]4)C(=O)N(C)C31Nc1ccccc12 (stereo not shown) [Compound 6, O,N^14-dimethylglandicolin] , give the reported pIC50.
Output: 4.70

Task: Can you check C=CC(C)(C)C12C=C(O)C(=O)N3/C(=C/c4cnc[nH]4)C(=O)N(C)C31N(OC)c1ccccc12 (stereo not shown) [Compound 4, N^14-methylmeleagrin] next?
Output: 4.45

Task: Can you check Oc1cc(Cl)ccc1Oc1ccc(Cl)cc1Cl [Triclosan, reference compound] next?
Output: 7.40

----------
Target: S. aureus FabI (Staphylococcus aureus, UniProt Q6GI75)
Construct: made in house
Sequence (Q6GI75 whole entry): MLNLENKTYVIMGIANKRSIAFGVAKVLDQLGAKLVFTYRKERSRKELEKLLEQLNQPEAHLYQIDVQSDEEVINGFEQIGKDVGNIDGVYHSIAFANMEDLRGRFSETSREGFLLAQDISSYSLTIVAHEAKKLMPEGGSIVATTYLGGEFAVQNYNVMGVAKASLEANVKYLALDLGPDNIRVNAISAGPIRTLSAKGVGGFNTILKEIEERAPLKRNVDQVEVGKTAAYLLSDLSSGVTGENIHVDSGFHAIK
Experiment: S. aureus FabI enzyme assay (NADPH use at 340 nm, t-o-NAC thioester substrate)
Type: biochemical
# IC50 per entry

As a guide, the following entries are already answered.
{"molecule": "C=CC(C)(C)C12C=C(O)C(=O)N3/C(=C/c4cnc[nH]4)C(=O)NC31Nc1ccccc12 (stereo not drawn) [Compound 2, glandicolin A]", "IC50": "54.6 µM"}
{"molecule": "C=CC(C)(C)C12C=C(OC)C(=O)N3/C(=C/c4cnc[nH]4)C(=O)N(C)C31Nc1ccccc12 (stereo not drawn) [Compound 6, O,N^14-dimethylglandicolin]", "IC50": "13.1 µM"}

Now, please, on to the next molecule.
Task: For the molecule shown here, C=CC(C)(C)C12C=C(O)C(=O)N3/C(=C/c4cnc[nH]4)C(=O)N(C)C31N(OC)c1ccccc12 (stereo not drawn) [Compound 4, N^14-methylmeleagrin] , give the reported IC50.
Output: 48 µM

----------
Tested on: E. coli EW1b
Assay: Overexpression assay, MIC for pump-negative (tolC) E. coli EW1b
Format: cell-based
Settings: Escherichia coli, read-out: MIC E. coli EW1b (−) Ara
measured-endpoint: MIC (µg/mL)
Give the number; µg/mL is assumed, so skip it.

Task: For the molecule shown here, C=CC(C)(C)C12C=C(OC)C(=O)N3/C(=C/c4cnc[nH]4)C(=O)N(C)C31N(OC)c1ccccc12 (centres unmarked) [Compound 5, O,N^14-dimethylmeleagrin] , give the reported MIC.
Output: 16

Task: Can you check CCCCC[C@H](CC(=O)NO)C(=O)N[C@H](C(=O)N1CCC[C@H]1CO)C(C)C [Actinonin] next?
Output: 1

Task: Can you check C=CC(C)(C)C12C=C(O)C(=O)N3/C(=C/c4cnc[nH]4)C(=O)NC31N(OC)c1ccccc12 (centres unmarked) [Compound 1, meleagrin] next?
Output: 32

Task: Can you check CC1(C)S[C@@H]2[C@H](NC(=O)[C@H](N)c3ccccc3)C(=O)N2[C@H]1C(=O)O [Ampicillin] next?
Output: 1

Task: Can you check Oc1cc(Cl)ccc1Oc1ccc(Cl)cc1Cl [Triclosan, reference compound] next?
Output: 0.002

----------
# IC50 per entry
Biological target: S. aureus FabI (Staphylococcus aureus)
Construct: made in house
Experiment: S. aureus FabI enzyme assay (NADPH use at 340 nm, t-o-NAC thioester substrate)
Type: biochemical
Give the number; µM is assumed, so skip it.

{"compound": "C=CC(C)(C)C12C=C(O)C(=O)N3/C(=C/c4cnc[nH]4)C(=O)NC31N(OC)c1ccccc12 (stereo not drawn)", "experimental-target": "S. aureus FabI (Staphylococcus aureus)", "IC50 [µM]": 40.1}

Task: For the compound shown here, C=CC(C)(C)C12C=C(OC)C(=O)N3/C(=C/c4cnc[nH]4)C(=O)NC31N(OC)c1ccccc12 (stereo not drawn) , give the reported IC50.
Output: 38.7

----------
# MIC per entry
Tested on: E. coli EW1b(pBAD-fabK)
Test: Overexpression assay, MIC for fabK-overexpressing E. coli EW1b (pBAD-fabK)
Assay type: cell-based
Details: Escherichia coli, read-out: MIC E. coli EW1b(pBAD-fabK) (+) Ara
Give the number; µg/mL is assumed, so skip it.

As a guide, the following entries are already answered.
{"compound": "C=CC(C)(C)C12C=C(OC)C(=O)N3/C(=C/c4cnc[nH]4)C(=O)N(C)C31N(OC)c1ccccc12 (centres unmarked)", "unit-string": "µg/mL", "assay-value": 16}
{"compound": "CCCCC[C@H](CC(=O)NO)C(=O)N[C@H](C(=O)N1CCC[C@H]1CO)C(C)C", "unit-string": "µg/mL", "assay-value": 1}

Task: For the compound shown here, C=CC(C)(C)C12C=C(O)C(=O)N3/C(=C/c4cnc[nH]4)C(=O)NC31N(OC)c1ccccc12 (centres unmarked) , give the reported MIC.
Output: 32

----------
# IC50 per entry
Molecular target: S. aureus FabI (Staphylococcus aureus, UniProt Q6GI75)
Construct: made in house
Test: S. aureus FabI enzyme assay (NADPH use at 340 nm, t-o-NAC thioester substrate)
Assay type: biochemical
Conditions: S. aureus FabI; read-out: IC50 saFabI

{"molecule": "C=CC(C)(C)C12C=C(OC)C(=O)N3/C(=C/c4cnc[nH]4)C(=O)N(C)C31N(OC)c1ccccc12 (stereo not shown)", "experimental-target": "S. aureus FabI (Staphylococcus aureus, UniProt Q6GI75)", "IC50": "13.5 µM"}
{"molecule": "CCn1cc(C(=O)O)c(=O)c2cc(F)c(N3CCNCC3)cc21 [Norfloxacin, reference compound]", "experimental-target": "S. aureus FabI (Staphylococcus aureus, UniProt Q6GI75)", "IC50": "> 100 µM"}

Task: For the molecule shown here, CC[C@H]1OC(=O)[C@H](C)[C@@H](O[C@H]2C[C@@](C)(OC)[C@@H](O)[C@H](C)O2)[C@H](C)[C@@H](O[C@@H]2O[C@H](C)C[C@H](N(C)C)[C@H]2O)[C@](C)(O)C[C@@H](C)C(=O)[C@H](C)[C@@H](O)[C@]1(C)O [Erythromycin, reference compound] , give the reported IC50.
Output: > 100 µM

Task: Can you check C=CC(C)(C)C12C=C(O)C(=O)N3/C(=C/c4cnc[nH]4)C(=O)NC31Nc1c(Br)cccc12 (stereo not shown) next?
Output: > 200 µM

----------
Test system: E. coli EW1b(pBAD)
Assay: Overexpression assay, MIC for vector-containing E. coli EW1b (pBAD)
Assay type: cell-based
Details: Escherichia coli, read-out: MIC E. coli EW1b(pBAD) (−) Ara
# MIC per entry
Give the number; µg/mL is assumed, so skip it.

As a guide, the following entries are already answered.
{"compound": "C=CC(C)(C)C12C=C(O)C(=O)N3/C(=C/c4cnc[nH]4)C(=O)NC31N(OC)c1ccccc12 (centres unmarked) [Compound 1, meleagrin]", "experimental-target": "E. coli EW1b(pBAD)", "measured-endpoint": "MIC", "unit-string": "µg/mL", "assay-value": 32}
{"compound": "Oc1cc(Cl)ccc1Oc1ccc(Cl)cc1Cl [Triclosan, reference compound]", "experimental-target": "E. coli EW1b(pBAD)", "measured-endpoint": "MIC", "unit-string": "µg/mL", "assay-value": 0.002}
{"compound": "C=CC(C)(C)C12C=C(OC)C(=O)N3/C(=C/c4cnc[nH]4)C(=O)N(C)C31N(OC)c1ccccc12 (centres unmarked) [Compound 5, O,N^14-dimethylmeleagrin]", "experimental-target": "E. coli EW1b(pBAD)", "measured-endpoint": "MIC", "unit-string": "µg/mL", "assay-value": 16}

Now, please, on to the next compound.
Task: For the compound shown here, CCCCC[C@H](CC(=O)NO)C(=O)N[C@H](C(=O)N1CCC[C@H]1CO)C(C)C [Actinonin] , give the reported MIC.
Output: 1

----------
Biological target: S. aureus FabI (Staphylococcus aureus)
Construct: made in house
Test: S. aureus FabI enzyme assay (NADPH use at 340 nm, t-o-NAC thioester substrate)
Type: biochemical
Conditions: Ki, with respect to NADPH
measured-endpoint: Ki (µM)
Give the number; µM is assumed, so skip it.

Task: For the molecule shown here, C=CC(C)(C)C12C=C(O)C(=O)N3/C(=C/c4cnc[nH]4)C(=O)NC31N(OC)c1ccccc12 (stereo not shown) , give the reported Ki.
Output: 32.3

Data provenance is paper PMC3842914.
